Entries annotated with measured change of melting temperature, mutant - wild type (higher = more stable)
B1: SH2 domain-containing protein 1A, O60880 (parent)
chain: MDAVAVYHGKISRETGEKLLLATGLDGSYLLRDSESVPGVYCLCVLYHGYIYTYRVSQTETGSWSAETAPGVHKRYFRKIKNLISAFQKPDQGIVIPLQYPVEKKSSARSTQGTTGIREDPDVCLKAP

# Variants of: B1
# run conditions: Homo sapiens; pH 7.4; Thermal; CD; Phosphate buffer saline; structure 1KA6; whole UniProt chain shown
quantity measured: change of melting temperature, mutant - wild type (higher = more stable) (°C)

* L31P | -12.2
* Y54C | -9.6
* E67D | -13.6
* G93D | -8.7
* F87S | -7.3
